Value source: the supplement of paper PMC10646978

Tested on: RAW-Dual (murine macrophage reporter line)
Test: NF-kB reporter (SEAP) activity fold change vs agonist alone; higher = enhanced NF-kB activity
Conditions: modulator concentration 10 µM; agonist: MPLA […]
NF-kB reporter below 1 gives Not met; NF-kB reporter at or above it gives Met.

Completed entries (count: 5):
# molecule, assay target, label class
records = [
    ("CCN(CC)CCNC(=O)c1ccc(N)cc1.Cl", "RAW-Dual (murine macrophage reporter line)", "Not met"),
    ("C[N+]1(C)CCC(OC(=O)C(O)(c2ccccc2)C2CCCC2)C1 (stereo unspecified)", "RAW-Dual (murine macrophage reporter line)", "Not met"),
    ("CCC(CNC(=O)Cc1c(F)cccc1Cl)(OC)c1ccccc1 (stereo unspecified)", "RAW-Dual (murine macrophage reporter line)", "Met"),
    ("CC(=O)Nc1ccc(NC(=S)NC(=O)C=Cc2ccc(Cl)cc2)cc1", "RAW-Dual (murine macrophage reporter line)", "Not met"),
    ("O=[N+]([O-])c1ccccc1S(=O)(=O)NCc1ccc2c(c1)OCO2", "RAW-Dual (murine macrophage reporter line)", "Not met"),
]

Next up:
Exercise: Entry CCOc1ccc(C=C2SC(=S)N(C)C2=O)cc1 : is its NF-kB reporter no less than 1?
Solution: Not met

---

System: RAW-Dual (murine macrophage reporter line)
Test: viability score (confluency relative to resting cells, overnight) (fraction); higher = more viable, active = viable (0.7 or more)
Conditions: modulator concentration 10 µM
In this section we review reported viability score values for a set of compounds.
The reply should be a number, written without any unit.

# compound, viability score
records = [
    ("CCc1ccc(CCOc2ccc(CC3SC(=O)NC3=O)cc2)nc1.Cl (centres undefined)", 0.997),
    ("Cc1ccc(NS(=O)(=O)c2cc3c4c(cccc4c2)C(=O)NC3=O)cc1C", 0.802),
    ("O=C(C=Cc1ccccc1)NC(NC(=S)Nc1ccc(Cl)cc1)C(Cl)(Cl)Cl (centres undefined)", 0.166),
]

Now let's try a different one.
Exercise: GET /values?readout=viability score&item= CCOC(=O)C1=C(C)N(CC(C)C)C(=O)C1=Cc1cccc(Br)c1
Solution: 0.992

---

Test system: RAW-Dual (murine macrophage reporter line)
Experiment: IRF reporter (Lucia luciferase) activity fold change vs agonist alone; higher = enhanced IRF activity
Details: modulator concentration 10 µM; agonist: LPS 0.1 ug/mL
measured metric: IRF reporter
The reply should be a number, written without any unit.

# compound, IRF reporter
data = [
    ("CC(C)(C)c1cc(CCC(=O)NN)cc(C(C)(C)C)c1O", 1.15),
    ("Cn1cnc2cc(NCc3nc4ccccc4n3C)ccc21", 1.03),
    ("Clc1ccc(CN2CCN(CCn3ccnc3-c3ccccc3)CC2)cc1", 1.27),
    ("Cl.Nc1ccn([C@@H]2O[C@H](CO)[C@@H](O)C2(F)F)c(=O)n1", 1.51),
    ("NC(Cc1ccccc1)C(=O)O (stereo not drawn)", 1.12),
    ("O=C1C2C3C=CC(C4CC34)C2C(=O)N1N=Cc1ccc(-c2ccc(Cl)cc2)o1 (stereo not drawn)", 1.56),
    ("O=c1[nH]c(=O)n([C@H]2C[C@H](O)[C@@H](CO)O2)cc1F", 0.923),
    ("O=C(NN=Cc1c(O)ccc2ccccc12)c1[nH]ncc1I", 1.32),
    ("CN(C)C(CNC(=O)NCc1ccc(Cl)cc1)c1ccc2c(c1)CCO2 (stereo not drawn)", 1.2),
    ("CCCCCCCCCCCCCCCCOc1nc2ccc(C)cc2c(=O)o1", 1.27),
]

Exercise: GET /values?readout=IRF reporter&item= Cl.NCc1ccc(S(N)(=O)=O)cc1
Solution: 0.962

Exercise: GET /values?readout=IRF reporter&item= CCN(CC)CCN1C(=O)C(O)=C(C(=O)c2ccc(Br)cc2)C1c1ccccc1F (stereo not drawn)
Solution: 1.14
